Tested on: HEK293
Assay: Cytotoxicity against HEK293 cells assessed as reduction in cell viability after 48 hrs by MTT assay
Assay type: cell-based
Conditions: Homo sapiens, HEK293, 48 h
Catalogue of IC50 values
ASSAY_ENDPOINT: IC50 (µM)

                            chemical_string  observed_measurement
0  CN(c1ccc(NC(=O)c2ccc(C(F)(F)F)cc2C(F)(F)F)cc1OCc1cccc(C(F)(F)F)c1)S(C)(=O)=O                  80.6
1  CN(c1ccc(NC(=O)c2ccc(C(F)(F)F)cc2C(F)(F)F)cc1OCc1cccc(C(F)(F)F)c1)S(=O)(=O)Cc1ccccc1                   176
2  CCCCCCOc1cc(NC(=O)c2cc(C(F)(F)F)cc(C(F)(F)F)c2)ccc1N(C)S(=O)(=O)Cc1ccccc1                  69.9
3  CN(c1ccc(NC(=O)c2cc(C(F)(F)F)cc(C(F)(F)F)c2)cc1OCc1ccc(C(F)(F)F)cc1)S(=O)(=O)Cc1ccccc1                   293

----------
Experiment: Selectivity index, ratio of IC50 for mouse […] cells to IC50 for bloodstream form of Trypanosoma brucei brucei Lister 427
Format: toxicity
Conditions: read-out: Ratio IC50
Catalogue of selectivity ratio values
ASSAY_ENDPOINT: selectivity ratio

>>> df
                             chemical_string  observed_measurement
 0  CN(c1ccc(NC(=O)c2ccc(C(F)(F)F)cc2C(F)(F)F)cc1OCc1cccc(C(F)(F)F)c1)S(=O)(=O)Cc1ccccc1                    99
 1  Cc1ccc(C)c(COc2cc(Nc3nccc(N)n3)ccc2N(C)S(C)(=O)=O)c1                  > 10
 2  CN(c1ccc(NC(=O)c2ccc(C(F)(F)F)cc2C(F)(F)F)cc1OCc1ccccc1C(F)(F)F)S(=O)(=O)Cc1ccccc1                  > 48
 3  Cc1ccc(C(F)(F)F)cc1COc1cc(NC(=O)c2cc(C(F)(F)F)cc(C(F)(F)F)c2)ccc1N(C)S(C)(=O)=O                  > 32
 4  CN(c1ccc(NC(=O)c2cc(C(F)(F)F)cc(C(F)(F)F)c2)cc1OCc1cccc(C(F)(F)F)c1)S(=O)(=O)Cc1ccccc1                    29
 5  CN(c1ccc(NC(=O)c2cc(C(F)(F)F)cc(C(F)(F)F)c2)cc1OCc1cccc(C(F)(F)F)c1)S(C)(=O)=O                  > 58
 6  CCS(=O)(=O)N(C)c1ccc(NC(=O)c2ccc3c(c2)OCO3)cc1OCc1cccc(C#N)c1                  > 21
 7  CN(c1ccc(NC(=O)c2cc(C(F)(F)F)cc(C(F)(F)F)c2)cc1OCc1cccc(C(=N)N)c1)S(C)(=O)=O                  > 10
 8  CN(c1ccc(NC(=O)c2ccc(C#N)cc2)cc1OCc1ccc(C(F)(F)F)cc1)S(=O)(=O)Cc1ccccc1                > 7140
 9  CCCCCCOc1cc(NC(=O)c2cc(C(F)(F)F)cc(C(F)(F)F)c2)ccc1N(C)S(=O)(=O)Cc1ccccc1                     9
10  CN(c1ccc(NC(=O)c2ccc(C(F)(F)F)cc2C(F)(F)F)cc1OCc1cccc(C(F)(F)F)c1)S(C)(=O)=O                  > 59
11  CN(c1ccc(NC(=O)c2cc(C(F)(F)F)cc(C(F)(F)F)c2)cc1OCc1ccccc1C(F)(F)F)S(=O)(=O)Cc1ccccc1                  > 70
12  CCCCCCOc1cc(NC(=O)c2ccc(C(F)(F)F)cc2C(F)(F)F)ccc1N(C)S(C)(=O)=O                  > 17
13  CN(c1ccc(NC(=O)c2ccc(C(F)(F)F)cc2C(F)(F)F)cc1OCc1ccccc1C(F)(F)F)S(C)(=O)=O                  > 38
